- Test system: Plasmodium berghei
- run-description: Screen against P. berghei liver stage (PbLuc), transformed with Luciferase, at 2uM
- Assay type: functional, HepG2
- assay-context: tested at 2 uM
Hit rate of the full screen: of about 68,000 compounds, about 2,700 (4%) showed an effect of 50% or more. Many of the other results were omitted from the sample, so strong results are more common in it than they were.
outcome-measure: INHIBITION (%)
Give bare numbers, in %.

Here's what some known entries look like.
| molecule | INHIBITION [%] |
| --- | --- |
| CCN1CCCC(O)(CNCc2ccc3c(c2)OCO3)C1 (stereo not drawn) | 35.84 |
| CC(C)c1nsc(NC2CCOC3(CCCC3)C2)n1 (stereo not drawn) | 30.06 |

For the 6 molecules below, give their INHIBITION values.
1. c1ccn2cc(CN3CCCC(c4ccn[nH]4)C3)nc2c1 (stereo not drawn)
2. NC(=O)c1ccc(NC2CCOC3(CCCC3)C2)nn1 (stereo not drawn)
3. Cc1nsc(NC2CCOC3(CCCCC3)C2)n1 (stereo not drawn)
4. COc1ccc(CCC(=O)NC2CCC(O)CC2)cc1OC (stereo not drawn)
5. CCc1cn[nH]c1C1CCCN(C(=O)c2ncoc2C(C)C)C1 (stereo not drawn)
6. CCc1cn[nH]c1C1CCCN(C(=O)c2cnc(NC(C)C)nc2)C1 (stereo not drawn)

1. 13.4
2. -0.45
3. 62
4. -59.24
5. 27.85
6. 56.49

###

- Tested on: Plasmodium berghei
- run-description: Screen against P. berghei liver stage (PbLuc), transformed with Luciferase, at 2uM
- Format: functional, HepG2
- assay-context: tested at 2 uM
Out of some 68,000 compounds screened, about 2,700 (4%) showed an effect of 50% or more. What follows is part of a selection rich in strong results, with near analogues and random picks from the rest.
// map INHIBITION onto a label; ranges label 0 (below -20%), label 1 (-20% to below 10%), label 2 (10% or more)

| compound | target-of-assay | class |
| --- | --- | --- |
| CCN(CC1CCCN(CCc2cccc(OC)c2)C1)C(=O)CN(C)C (stereo not drawn) | Plasmodium berghei | label 0 |
| Cc1cccc(C2CC(=O)Nc3c2c(=O)[nH]n3C(C)C)c1 (stereo not drawn) | Plasmodium berghei | label 0 |
| CC(C)NC(=O)CC(C)NCc1ccc(F)cc1Cl (stereo not drawn) | Plasmodium berghei | label 2 |
| CC(=O)N[C@@H]1CN(C(=O)CC2CC2)C[C@H]1O | Plasmodium berghei | label 2 |
| c1ccc(CN2C[C@H]3CC[C@@H](C2)N(Cc2nnc(C4CC4)o2)C3)cc1 | Plasmodium berghei | label 1 |
| CCOCC(=O)N1C[C@@H](O)[C@H](NC(C)=O)C1 | Plasmodium berghei | label 0 |

For this compound, which bin applies? Cc1ccc(CN(CCCn2ccnc2)Cc2c(F)cccc2F)s1
label 2

Consider next the compound CNc1nc2c(c(C(=O)N3CCCC3)n1)CN(Cc1cc(C)no1)CC2 in the same way.
label 2

Consider next the compound CN(C)S(=O)(=O)c1ccc(-c2nc(C#N)c(NC(C)(C)C)o2)o1 in the same way.
label 1

Consider next the compound O=C(Nc1cccnc1-n1cc(Cl)cn1)C1CC1 in the same way.
label 0

###

- Test system: Plasmodium berghei
- run-description: Screen against P. berghei liver stage (PbLuc), transformed with Luciferase, at 2uM
- Format: functional, HepG2
- assay-context: tested at 2 uM
The whole screen tested about 68,000 compounds, of which about 2,700 (4%) showed an effect of 50% or more. The sample as a whole holds a higher share of strong results than the screen did.
outcome-measure: INHIBITION (%)
Numbers only, in %.

Here's what some known entries look like.
| compound | target-of-assay | INHIBITION, % |
| --- | --- | --- |
| Cc1nn(C)c(N(C)C)c1CNCc1ccccc1Cn1cccn1 | Plasmodium berghei | -40.27 |
| COc1ccc(CN2C[C@@H]3COC[C@@H](N4CCN(C)CC4)[C@@H]3C2)cc1 | Plasmodium berghei | -54.53 |
| COc1cccc(-n2cc(CN(C)C(=O)c3cnc(O)cn3)cn2)c1 | Plasmodium berghei | -6.27 |

For the 3 compounds below, give their INHIBITION values.
1. CC(=O)N1N=C(c2ccco2)OC1C(=O)NCC(C)C (stereo not drawn)
2. CN(C)C(=O)CN1CC=C(c2cnn(Cc3ccccc3)c2)CC1
3. CC(=O)N1N=C(c2ccccc2)OC1C(=O)NCCc1ccc(O)cc1 (stereo not drawn)

[5.77, 21.95, 26.64]

For the 3 compounds below, give their INHIBITION values.
1. COc1cc(NC(=O)c2ccccc2F)c(C(=O)N(C)C)cc1OC
2. COc1ccccc1C(=O)N1CC(=O)N(Cc2ccco2)CC(O)C1 (stereo not drawn)
3. CC(=O)N1N=C(c2ccccc2)OC1C(=O)NCCC1=CCCCC1 (stereo not drawn)

1: 5.52; 2: -8.2; 3: 85.54

For the 2 compounds below, give their INHIBITION values.
1. CC(=O)N1N=C(c2ccco2)OC1C(=O)NCCc1ccc(F)cc1 (stereo not drawn)
2. O=C(c1ccc(S(=O)(=O)NCCc2ccccn2)cc1)N1CCCC1

[58.6, 29.41]

For the 2 compounds below, give their INHIBITION values.
1. C/C(NC(=O)c1ccco1)=C1/C(=O)C[C@@H]2[C@H]1C2(C)C
2. C/C(NC(=O)c1ccccn1)=C1\C(=O)C[C@@H]2[C@H]1C2(C)C

18.11
52.74
